Target: UniProt P22455
Sequence (P22455 22-802): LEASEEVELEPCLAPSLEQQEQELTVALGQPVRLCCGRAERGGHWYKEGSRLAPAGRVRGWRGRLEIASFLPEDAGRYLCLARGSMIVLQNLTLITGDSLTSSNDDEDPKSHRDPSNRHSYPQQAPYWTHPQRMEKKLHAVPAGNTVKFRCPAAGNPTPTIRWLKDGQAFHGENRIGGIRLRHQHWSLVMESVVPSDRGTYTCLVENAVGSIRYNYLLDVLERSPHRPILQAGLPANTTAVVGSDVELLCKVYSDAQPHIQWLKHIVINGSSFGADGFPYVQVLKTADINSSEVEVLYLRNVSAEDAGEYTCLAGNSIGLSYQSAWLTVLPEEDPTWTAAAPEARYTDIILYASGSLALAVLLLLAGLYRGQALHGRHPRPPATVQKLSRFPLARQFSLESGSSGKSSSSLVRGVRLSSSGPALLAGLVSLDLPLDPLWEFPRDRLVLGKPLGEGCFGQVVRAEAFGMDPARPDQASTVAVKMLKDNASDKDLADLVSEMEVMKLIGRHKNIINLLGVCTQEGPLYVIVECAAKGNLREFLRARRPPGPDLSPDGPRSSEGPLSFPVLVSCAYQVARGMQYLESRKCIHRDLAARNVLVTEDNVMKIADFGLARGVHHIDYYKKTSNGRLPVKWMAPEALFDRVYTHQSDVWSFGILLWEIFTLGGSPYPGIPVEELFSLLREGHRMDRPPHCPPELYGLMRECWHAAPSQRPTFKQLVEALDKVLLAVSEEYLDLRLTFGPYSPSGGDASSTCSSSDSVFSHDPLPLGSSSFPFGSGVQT
Quantity: Kd (nM)

>>> measured_result("Cc1ccc2c(-c3nc(Nc4ccc(N5CCS(=N)(=O)CC5)cc4)ncc3C)c[nH]c2c1")
230

1: C=CC(=O)Nc1ccc2c(ccn2-c2nc(Nc3ccc(S(C)(=N)=O)cc3OC)ncc2C)c1 (centres unmarked)
2: Cc1cnc(Nc2ccc(N=S(C)(C)=O)cc2)nc1-n1ccc2ccccc21
3: Cc1[nH]c2ccccc2c1-c1nc(Nc2ccc(S(C)(=N)=O)cc2)ncc1Cl (centres unmarked)
// sort entries: Kd, high to low The response must list the labels following the requested ordering.
2, 3, 1

----------
Molecular target: FGFR3 (V555M) (Homo sapiens, UniProt P22607, V555M)
Construct: made in house; host or cells: E. coli host derived from BL21, infected with T7 phage
Sequence (P22607 23-806 V555M): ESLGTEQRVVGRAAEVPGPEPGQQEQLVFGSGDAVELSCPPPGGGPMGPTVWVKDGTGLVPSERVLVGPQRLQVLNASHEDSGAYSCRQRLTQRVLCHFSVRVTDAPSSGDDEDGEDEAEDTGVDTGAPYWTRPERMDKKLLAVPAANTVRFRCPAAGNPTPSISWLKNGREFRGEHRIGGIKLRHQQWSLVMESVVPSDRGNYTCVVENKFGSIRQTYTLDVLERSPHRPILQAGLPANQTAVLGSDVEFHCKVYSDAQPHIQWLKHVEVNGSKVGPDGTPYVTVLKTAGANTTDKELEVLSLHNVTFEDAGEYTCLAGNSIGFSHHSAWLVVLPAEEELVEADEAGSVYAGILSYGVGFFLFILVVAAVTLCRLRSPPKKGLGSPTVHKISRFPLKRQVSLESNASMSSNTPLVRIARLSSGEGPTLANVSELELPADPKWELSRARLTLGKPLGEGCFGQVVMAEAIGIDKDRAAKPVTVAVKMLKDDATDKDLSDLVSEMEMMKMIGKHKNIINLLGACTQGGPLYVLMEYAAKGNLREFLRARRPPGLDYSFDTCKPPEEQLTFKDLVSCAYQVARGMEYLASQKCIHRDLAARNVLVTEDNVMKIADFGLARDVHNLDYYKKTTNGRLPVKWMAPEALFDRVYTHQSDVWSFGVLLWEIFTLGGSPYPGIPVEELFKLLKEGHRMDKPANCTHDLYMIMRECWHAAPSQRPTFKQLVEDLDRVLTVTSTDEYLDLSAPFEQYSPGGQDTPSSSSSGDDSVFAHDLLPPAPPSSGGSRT
Assay: Kinase binding assay (Kd), FGFR3 (V555M)
Details: 11-point 3-fold dilution, qPCR readout
Quantity: Kd (nM)

>>> measured_result("COc1cc(Nc2ncc(C)c(-c3c[nH]c4c(C)cccc34)n2)ccc1N=S(C)(C)=O")
0.5
>>> measured_result("CS(C)(=O)=Nc1ccc(Nc2ncc(Cl)c(-c3c[nH]c4ccccc34)n2)cc1")
4
>>> measured_result("COc1cc(N2CCS(=N)(=O)CC2)ccc1Nc1nccc(-n2ccc3ccccc32)n1")
1100
>>> measured_result("Cc1cnc(Nc2ccc(N=S3(=O)CCN(C)CC3)cc2)nc1-c1c[nH]c2ccccc12")
1
>>> measured_result("Cn1cc(-c2nc(Nc3ccc(S(=N)(=O)C4CC4)cc3)ncc2Cl)c2ccccc21 (stereo not shown)")
26

I: C=CC(=O)Nc1ccc2c(c1)c(C)cn2-c1nc(Nc2ccc(N=S(C)(C)=O)c(OC)c2)ncc1Cl
II: COc1cc(Nc2ncc(C)c(-c3c[nH]c4c(OC)cccc34)n2)ccc1N=S(C)(C)=O
Field: lower recorded Kd (choose I or II ) Selection: enter the item's label.
I

----------
Target: FGFR3 (V555M) (Homo sapiens, UniProt P22607, V555M)
Construct: made in house; host or cells: E. coli host derived from BL21, infected with T7 phage
Experiment: Kinase binding assay (Kd), FGFR3 (V555M)
Conditions: 11-point 3-fold dilution, qPCR readout
Quantity: Kd (nM)

Some compounds with known Kd results, for comparison:
>>> measured_result("C=CC(=O)Nc1cccc2c1ccn2-c1nc(Nc2ccc(N=S(C)(C)=O)cc2)ncc1Cl")
12
>>> measured_result("CS(C)(=O)=Nc1cccc(Nc2ncc(Cl)c(-c3c[nH]c4ccccc34)n2)c1")
4
>>> measured_result("C=CC(=O)Nc1ccc2c(ccn2-c2nc(Nc3ccc(S(C)(=N)=O)cc3)ncc2Cl)c1 (stereo not shown)")
9.2

A: C=CC(=O)Nc1cc(N=S(C)(C)=O)ccc1Nc1nccc(-n2ccc3ccccc32)n1
B: CCC(=O)Nc1cccc2c1ccn2-c1nc(Nc2ccc(N3CCS(=N)(=O)CC3)cc2)ncc1Cl
Would you kindly point out which of A and B has the smaller Kd figure? Lab log: write the label of the selected item as the result.
B

a: Cc1ccc2c(-c3nc(Nc4ccc(N5CCS(=N)(=O)CC5)cc4)ncc3C)c[nH]c2c1
b: C=CC(=O)Nc1ccc2c(ccn2-c2nc(Nc3ccc(N=S(C)(C)=O)c(F)c3)ncc2Cl)c1C
c: C=CC(=O)Nc1ccc2c(ccn2-c2nc(Nc3ccc(S(C)(=N)=O)cc3)ncc2C)c1 (stereo not shown)
In this exercise, place the 3 compounds in ascending sequence of their recorded Kd. I would appreciate it if you listed the labels in the requested order.
a, b, c

I: CCOc1cc(N=S(C)(C)=O)ccc1Nc1ncc(C)c(-c2c[nH]c3c(C)cccc23)n1
II: CN1CCS(=O)(=Nc2ccc(Nc3ncc(Cl)c(-c4c[nH]c5ccccc45)n3)cc2)CC1
Lab note: check whether I or II has the lower measured Kd. State the label of the item chosen.
II
(II: 2 nM, I: 57 nM)

1: Cc1cnc(Nc2ccc(N=S(C)(C)=O)cc2)nc1-n1ccc2ccccc21
2: CS(C)(=O)=Nc1ccc(Nc2nccc(-c3c[nH]c4ccccc34)n2)cc1
Lab notebook, comparison: 1 versus 2 , higher Kd goes to which? // respond with label for picked entry
2

----------
Biological target: FGFR2 (Homo sapiens)
Construct: made in house; host or cells: E. coli host derived from BL21, infected with T7 phage
Assay: Kinase binding assay (Kd), FGFR2
Settings: 11-point 3-fold dilution, qPCR readout
Quantity: Kd (nM)

>>> measured_result("C=CC(=O)Nc1ccc2c(c1)c(C)cn2-c1nc(Nc2ccc(N=S(C)(C)=O)c(F)c2)ncc1C")
3
>>> measured_result("C=CC(=O)Nc1cc2ccn(-c3nc(Nc4ccc(N=S(C)(C)=O)cc4)ncc3Cl)c2cc1C")
89

I: CCOc1cc(N=S(C)(C)=O)ccc1Nc1ncc(Cl)c(-c2c[nH]c3ccccc23)n1
II: CCC(=O)Nc1cccc2c1ccn2-c1nc(Nc2ccc(N=S(C)(C)=O)cc2)ncc1Cl
Of I and II , whose reported Kd is numerically smaller? Respond using the label that marks the chosen record.
II
(II: 260 nM, I: 1900 nM)

----------
Biological target: FGFR3 (Homo sapiens, UniProt P22607)
Construct: made in house; host or cells: E. coli host derived from BL21, infected with T7 phage
Sequence (P22607 23-806): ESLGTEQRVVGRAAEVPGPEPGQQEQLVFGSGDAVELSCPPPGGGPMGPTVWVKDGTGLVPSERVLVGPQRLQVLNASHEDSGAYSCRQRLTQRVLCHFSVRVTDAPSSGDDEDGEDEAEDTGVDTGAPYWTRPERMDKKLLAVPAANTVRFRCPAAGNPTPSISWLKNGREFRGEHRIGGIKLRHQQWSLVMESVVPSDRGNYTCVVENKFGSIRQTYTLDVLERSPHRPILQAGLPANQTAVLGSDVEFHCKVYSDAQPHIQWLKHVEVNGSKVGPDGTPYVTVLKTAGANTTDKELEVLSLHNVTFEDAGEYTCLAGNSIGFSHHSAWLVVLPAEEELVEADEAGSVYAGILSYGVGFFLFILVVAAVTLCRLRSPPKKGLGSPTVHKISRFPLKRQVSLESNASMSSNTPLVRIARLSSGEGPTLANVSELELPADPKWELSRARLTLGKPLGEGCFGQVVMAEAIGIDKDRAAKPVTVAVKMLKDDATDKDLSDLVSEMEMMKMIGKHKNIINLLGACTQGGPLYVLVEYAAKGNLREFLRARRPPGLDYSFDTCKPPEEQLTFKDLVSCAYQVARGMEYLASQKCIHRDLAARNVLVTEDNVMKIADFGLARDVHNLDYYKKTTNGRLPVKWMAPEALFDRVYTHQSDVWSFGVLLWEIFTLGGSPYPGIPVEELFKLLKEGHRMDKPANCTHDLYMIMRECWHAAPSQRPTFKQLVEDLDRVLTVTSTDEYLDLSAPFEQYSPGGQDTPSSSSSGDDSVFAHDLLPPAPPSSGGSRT
Assay: Kinase binding assay (Kd), FGFR3
Details: 11-point 3-fold dilution, qPCR readout
Quantity: Kd (nM)

>>> measured_result("C=CC(=O)Nc1ccc2c(c1)c(C)cn2-c1nc(Nc2ccc(N=S(C)(C)=O)c(OC)c2)ncc1Cl")
4
>>> measured_result("C=CC(=O)Nc1ccc2c(ccn2-c2nc(Nc3ccc(N=S(C)(C)=O)c(F)c3)ncc2Cl)c1C")
150

a: N=S1(=O)CCN(c2ccc(Nc3ncc(Cl)c(-n4ccc5c(N)cccc54)n3)cc2)CC1
b: C=CC(=O)Nc1ccc2c(c1)c(C)cn2-c1nc(Nc2ccc(N=S(C)(C)=O)c(F)c2)ncc1C
Kd comparison. Which is larger, a or b ? Kindly state the label of the option you pick.
a
(a: 42 nM, b: 3 nM)

P: C=CC(=O)Nc1cc(N=S(C)(C)=O)ccc1Nc1ncc(C)c(-c2c[nH]c3ccccc23)n1
Q: COc1cc(S(C)(=N)=O)ccc1Nc1nccc(-n2ccc3ccccc32)n1 (centres unmarked)
Between P and Q , which one shows the smaller Kd number? Use the label to indicate which entry you chose.
P

A: Cc1ccc2c(-c3nc(Nc4ccc(N5CCS(=N)(=O)CC5)cc4)ncc3C)c[nH]c2c1
B: CN1CCS(=O)(=Nc2ccc(Nc3nccc(-n4ccc5ccccc54)n3)cc2)CC1
From the items above, decide which of A and B has the lower Kd reading. Field: selected label. Fill in the label of the entry you choose.
A

----------
Target: FGFR2 (Homo sapiens, UniProt P21802)
Construct: made in house; host or cells: E. coli host derived from BL21, infected with T7 phage
Sequence (P21802 22-821): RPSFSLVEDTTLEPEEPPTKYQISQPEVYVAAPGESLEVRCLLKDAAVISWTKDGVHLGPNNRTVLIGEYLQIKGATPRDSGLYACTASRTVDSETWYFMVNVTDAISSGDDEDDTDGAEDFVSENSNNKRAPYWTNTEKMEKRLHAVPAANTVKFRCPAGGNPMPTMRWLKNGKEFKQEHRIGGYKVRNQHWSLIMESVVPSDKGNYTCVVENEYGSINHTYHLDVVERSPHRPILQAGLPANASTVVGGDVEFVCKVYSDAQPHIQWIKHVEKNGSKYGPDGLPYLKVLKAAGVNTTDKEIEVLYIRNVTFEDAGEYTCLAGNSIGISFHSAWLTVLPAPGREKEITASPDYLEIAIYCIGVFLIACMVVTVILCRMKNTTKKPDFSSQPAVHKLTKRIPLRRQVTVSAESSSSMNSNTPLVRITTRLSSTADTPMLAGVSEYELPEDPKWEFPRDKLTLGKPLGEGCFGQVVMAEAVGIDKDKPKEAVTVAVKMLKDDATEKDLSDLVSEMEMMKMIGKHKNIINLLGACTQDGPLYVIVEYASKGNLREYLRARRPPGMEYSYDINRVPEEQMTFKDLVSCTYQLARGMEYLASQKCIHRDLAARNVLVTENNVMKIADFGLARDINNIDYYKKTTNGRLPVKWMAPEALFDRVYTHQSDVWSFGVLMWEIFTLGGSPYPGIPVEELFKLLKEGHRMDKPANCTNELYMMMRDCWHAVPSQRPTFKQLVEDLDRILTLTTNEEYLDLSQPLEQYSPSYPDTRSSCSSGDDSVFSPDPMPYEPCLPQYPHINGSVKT
Experiment: Kinase binding assay (Kd), FGFR2
Details: 11-point 3-fold dilution, qPCR readout
Quantity: Kd (nM)

Here is how some compounds turned out for Kd.
>>> measured_result("C=CC(=O)Nc1ccc2c(-c3nc(Nc4ccc(S(C)(=N)=O)cc4)ncc3Cl)c[nH]c2c1 (centres unmarked)")
50
>>> measured_result("C=CC(=O)Nc1ccc2c(-c3nc(Nc4ccc(S(=N)(=O)C5CC5)cc4)ncc3Cl)c[nH]c2c1 (centres unmarked)")
59
>>> measured_result("Cc1ccc2c(-c3nc(Nc4ccc(N=S(C)(C)=O)cc4)ncc3C)c[nH]c2c1")
63

P: C=CC(=O)Nc1ccc2c(c1)c(C)cn2-c1nc(Nc2ccc(N=S(C)(C)=O)c(F)c2)ncc1C#N
Q: COc1cc(S(C)(=N)=O)ccc1Nc1ncc(Cl)c(-c2c[nH]c3ccccc23)n1 (centres unmarked)
R: C=CC(=O)Nc1cccc2c(-c3nc(Nc4ccc(S(C)(=N)=O)cc4)ncc3Cl)c[nH]c12 (centres unmarked)
S: CS(C)(=O)=Nc1ccc(Nc2ncc(Cl)c(-n3ccc4cc(NC(=O)C5CC5)ccc43)n2)cc1
T: N=S1(=O)CCN(c2ccc(Nc3ncc(Cl)c(-c4c[nH]c5ccccc45)n3)cc2)CC1
Please put the entries in order of rising Kd. To answer, arrange all of the labels according to the requested order.
T, P, R, Q, S

----------
Biological target: FGFR1 (Homo sapiens, UniProt P11362)
Construct: made in house; host or cells: E. coli host derived from BL21, infected with T7 phage
Sequence (P11362 22-822): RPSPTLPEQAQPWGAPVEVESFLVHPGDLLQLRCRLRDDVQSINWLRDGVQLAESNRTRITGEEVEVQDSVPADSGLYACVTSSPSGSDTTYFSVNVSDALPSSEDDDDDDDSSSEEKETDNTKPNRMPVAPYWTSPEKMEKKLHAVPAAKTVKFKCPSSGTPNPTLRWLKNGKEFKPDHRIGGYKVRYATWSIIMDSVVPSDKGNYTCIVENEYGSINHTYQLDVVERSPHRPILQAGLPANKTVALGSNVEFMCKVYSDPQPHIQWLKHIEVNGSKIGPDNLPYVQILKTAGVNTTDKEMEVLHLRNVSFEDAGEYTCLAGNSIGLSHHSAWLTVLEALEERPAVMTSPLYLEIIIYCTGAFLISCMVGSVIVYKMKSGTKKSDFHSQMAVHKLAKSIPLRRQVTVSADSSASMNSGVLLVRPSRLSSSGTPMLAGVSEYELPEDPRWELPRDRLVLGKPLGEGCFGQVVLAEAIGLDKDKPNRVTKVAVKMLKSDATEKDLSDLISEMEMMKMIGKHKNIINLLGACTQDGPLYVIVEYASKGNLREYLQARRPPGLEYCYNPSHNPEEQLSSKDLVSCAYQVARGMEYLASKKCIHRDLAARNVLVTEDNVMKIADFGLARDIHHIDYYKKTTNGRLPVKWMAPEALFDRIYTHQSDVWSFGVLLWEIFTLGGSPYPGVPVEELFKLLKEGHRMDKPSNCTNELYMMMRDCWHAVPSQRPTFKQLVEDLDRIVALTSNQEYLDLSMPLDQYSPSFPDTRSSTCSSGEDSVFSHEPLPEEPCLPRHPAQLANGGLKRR
Assay: Kinase binding assay (Kd), FGFR1
Conditions: 11-point 3-fold dilution, qPCR readout
Quantity: Kd (nM)

A selection of reference data follows.
>>> measured_result("COc1cc(N=S2(=O)CCN(C)CC2)ccc1Nc1ncc(Cl)c(-c2c[nH]c3ccccc23)n1")
25
>>> measured_result("COc1cc(N2CCS(=N)(=O)CC2)ccc1Nc1ncc(C)c(-n2ccc3ccccc32)n1")
2700
>>> measured_result("C=CC(=O)Nc1ccc2c(ccn2-c2nc(Nc3ccc(N=S(C)(C)=O)cc3)ncc2Cl)c1")
61
>>> measured_result("CS(C)(=O)=Nc1ccc(Nc2ncc(F)c(-c3c[nH]c4ccccc34)n2)cc1")
18

P: CS(C)(=O)=Nc1ccc(Nc2cc(-n3ccc4ccccc43)ncn2)cc1
Q: Cc1cnc(Nc2ccc(S(C)(=N)=O)cc2)nc1-c1c(C)[nH]c2ccccc12 (stereo not shown)
From the recorded data, which exceeds the other in Kd: P or Q ? Label of pick, please.
P

P: C=CC(=O)Nc1ccc2c(c1)c(C)cn2-c1nc(Nc2ccc(N=S(C)(C)=O)c(F)c2)ncc1Cl
Q: C=CC(=O)Nc1ccc2c(ccn2-c2nc(Nc3ccc(N=S4(=O)CCN(C)CC4)cc3)ncc2Cl)c1
R: CCOc1cc(N=S(C)(C)=O)ccc1Nc1ncc(Cl)c(-c2c[nH]c3ccccc23)n1
S: C=CC(=O)Nc1ccc2c(-c3nc(Nc4ccc(N=S(C)(C)=O)cc4)ncc3Cl)cn(C)c2c1
T: COc1cc(Nc2ncc(C)c(-c3c[nH]c4c(OC)cccc34)n2)ccc1N=S(C)(C)=O
// smallest Kd at index 0, largest at the end Answer format: the labels, in the requested order.
T, P, Q, S, R
(T: 4 nM, P: 14 nM, Q: 33 nM, S: 63 nM, R: 480 nM)
